Molecular target: Metabotropic glutamate receptor 5 (Rattus norvegicus)
Assay: Positive allosteric modulation of rat mGluR5 expressed in human HEK293 cells assessed as calcium mobilization
Assay type: functional, cell-based
Settings: hek293; read-out: EC50
measurement name: EC50

Asked: Suppose we examine the compound CCCCOc1ccc(C(=O)Nc2ccc(F)cc2F)cc1 ; what EC50 value has been reported?
Given back: 33 nM

* * *

Biological target: Metabotropic glutamate receptor 5 (Rattus norvegicus) (UniProt P31424)
Sequence (P31424 21-1203 limits assumed): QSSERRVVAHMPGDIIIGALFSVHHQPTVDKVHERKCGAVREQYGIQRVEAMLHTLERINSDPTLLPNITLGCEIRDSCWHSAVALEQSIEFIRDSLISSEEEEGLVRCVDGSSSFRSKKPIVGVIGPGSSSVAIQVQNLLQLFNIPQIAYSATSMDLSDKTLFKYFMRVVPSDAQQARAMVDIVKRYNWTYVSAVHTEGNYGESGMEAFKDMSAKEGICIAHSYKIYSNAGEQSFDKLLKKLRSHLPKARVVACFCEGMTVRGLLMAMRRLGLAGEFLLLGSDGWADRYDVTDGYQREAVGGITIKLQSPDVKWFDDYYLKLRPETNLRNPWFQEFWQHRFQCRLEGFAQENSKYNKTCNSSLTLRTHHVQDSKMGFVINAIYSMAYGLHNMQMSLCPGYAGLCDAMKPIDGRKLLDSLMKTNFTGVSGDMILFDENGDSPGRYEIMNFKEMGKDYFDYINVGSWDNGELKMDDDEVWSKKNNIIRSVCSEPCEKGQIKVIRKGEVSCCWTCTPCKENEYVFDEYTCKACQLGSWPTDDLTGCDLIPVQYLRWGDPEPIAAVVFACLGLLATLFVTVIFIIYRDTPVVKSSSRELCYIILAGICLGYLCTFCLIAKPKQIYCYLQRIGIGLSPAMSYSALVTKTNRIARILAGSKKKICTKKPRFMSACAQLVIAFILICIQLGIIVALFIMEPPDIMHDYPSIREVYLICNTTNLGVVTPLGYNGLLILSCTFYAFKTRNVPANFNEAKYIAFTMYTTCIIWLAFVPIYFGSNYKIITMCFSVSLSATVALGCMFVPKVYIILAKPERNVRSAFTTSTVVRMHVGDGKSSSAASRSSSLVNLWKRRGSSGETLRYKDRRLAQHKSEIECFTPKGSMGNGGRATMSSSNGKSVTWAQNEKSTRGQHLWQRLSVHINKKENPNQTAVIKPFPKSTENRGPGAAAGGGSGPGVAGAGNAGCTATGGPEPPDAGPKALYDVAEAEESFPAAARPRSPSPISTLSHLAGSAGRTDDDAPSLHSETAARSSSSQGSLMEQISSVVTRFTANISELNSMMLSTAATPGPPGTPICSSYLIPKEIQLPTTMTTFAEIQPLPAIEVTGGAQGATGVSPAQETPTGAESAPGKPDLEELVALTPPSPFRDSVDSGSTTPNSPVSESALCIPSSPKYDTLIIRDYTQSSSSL
Assay: Displacement of [3H]methoxyPEPy from rat mGluR5 expressed in human HEK293 cells at 10 uM after 1 hr by scintillation counter
Type: cell-based
measurement name: Activity

CCCCOc1ccc(C(=O)Nc2ncc(F)cc2F)cc1 ... 0%
CCCCOc1ccc(C(=O)NC2CCC2)cc1 ... 6.5%
O=C(NC1CCCCC1)c1ccc(OCc2ccccc2)nc1 ... 21%
CCCCOc1ccc(C(=O)NC2CCCCC2)cn1 ... 27%
O=C(NC1CCCCC1)c1ccc(OCC2CCCC2)nc1 ... 0%

Asked: Entry under review: CCCCOc1ccc(C(=O)Nc2ccc(F)cn2)cn1 . Reported Activity?
Given back: 9.5%

Asked: Fill in: Activity of CCCCOc1ccc(C(=O)Nc2ccc(F)cc2F)cn1 is ___
Given back: 5%

Asked: Tell me the measured Activity of CCCCOc1ccc(C(=O)NC2CCCCC2)cc1 , please.
Given back: 12%

* * *

Assay: Terminal half life in rat at 1 mg/kg, iv and 10 mg/kg, po
Type: ADME, organism-based
Conditions: in vivo, read-out: beta t1/2 (converted)
measurement name: half-life
Just so you know, I need the unit written after the number.

Asked: # get_value(readout='half-life', item= C[C@@H](NC(=O)c1ccc(OCc2cccc(F)c2)nc1)C(C)(C)C )
Given back: 5 h

* * *

Test: Plasma protein binding in rat plasma
measurement name: PPB

Asked: // returns reported PPB for input C[C@@H](NC(=O)c1ccc(OCc2cccc(F)c2)nc1)C(C)(C)C
Given back: ≥ 0.99

* * *

Target: Metabotropic glutamate receptor 3 (Homo sapiens, UniProt Q14832)
Sequence (Q14832 whole entry): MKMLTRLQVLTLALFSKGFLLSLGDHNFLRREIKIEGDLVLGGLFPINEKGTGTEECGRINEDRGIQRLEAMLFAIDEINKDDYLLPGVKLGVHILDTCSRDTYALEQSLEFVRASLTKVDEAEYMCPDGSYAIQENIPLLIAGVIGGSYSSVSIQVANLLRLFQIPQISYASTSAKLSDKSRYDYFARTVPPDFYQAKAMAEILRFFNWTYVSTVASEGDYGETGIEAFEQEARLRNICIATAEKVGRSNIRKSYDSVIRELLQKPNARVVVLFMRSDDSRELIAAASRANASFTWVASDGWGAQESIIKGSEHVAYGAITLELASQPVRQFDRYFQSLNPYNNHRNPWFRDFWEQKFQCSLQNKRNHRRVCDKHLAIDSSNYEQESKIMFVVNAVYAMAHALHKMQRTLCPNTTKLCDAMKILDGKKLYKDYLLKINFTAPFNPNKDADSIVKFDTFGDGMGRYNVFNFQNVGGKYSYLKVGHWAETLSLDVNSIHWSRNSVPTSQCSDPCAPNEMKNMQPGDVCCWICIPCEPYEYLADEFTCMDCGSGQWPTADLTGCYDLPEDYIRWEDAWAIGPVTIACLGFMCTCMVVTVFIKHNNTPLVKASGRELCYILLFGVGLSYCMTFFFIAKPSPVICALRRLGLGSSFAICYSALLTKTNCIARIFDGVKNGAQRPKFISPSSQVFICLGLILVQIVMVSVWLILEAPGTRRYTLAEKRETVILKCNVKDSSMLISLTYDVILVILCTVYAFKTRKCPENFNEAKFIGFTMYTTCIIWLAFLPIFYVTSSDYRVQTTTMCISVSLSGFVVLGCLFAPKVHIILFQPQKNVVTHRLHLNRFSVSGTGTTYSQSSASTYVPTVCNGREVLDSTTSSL
Test: Positive allosteric modulation of mGluR3
measurement name: EC50

Asked: Which measured EC50 belongs to C[C@@H](NC(=O)c1ccc(OCc2cccc(F)c2)nc1)C(C)(C)C , tested on Metabotropic glutamate receptor 3 (Homo sapiens, UniProt Q14832)?
Given back: > 10 µM

* * *

Molecular target: Metabotropic glutamate receptor 5 (Homo sapiens)
Assay: Positive allosteric modulation of human mGluR5 expressed in HEK293 cells assessed as calcium mobilization
Here, each record is paired with measured pEC50 data.
# pEC50 = -log10(concentration in molar units)

C[C@@H](NC(=O)c1ccc(OCc2cccc(F)c2)nc1)C(C)(C)C ... 7.15

Next compound, please.
Asked: Endpoint output: pEC50 of C[C@@H](NC(=O)c1ccc(OCc2cccc(F)c2)cc1)C(C)(C)C . Value?
Given back: 6.74

* * *

Experiment: Plasma protein binding in human plasma
measurement name: PPB

Asked: Which value of PPB has been reported for C[C@@H](NC(=O)c1ccc(OCc2cccc(F)c2)nc1)C(C)(C)C in the records?
Given back: ≥ 0.99

* * *

Target: Metabotropic glutamate receptor 4 (Homo sapiens)
Sequence (Q14833 whole entry): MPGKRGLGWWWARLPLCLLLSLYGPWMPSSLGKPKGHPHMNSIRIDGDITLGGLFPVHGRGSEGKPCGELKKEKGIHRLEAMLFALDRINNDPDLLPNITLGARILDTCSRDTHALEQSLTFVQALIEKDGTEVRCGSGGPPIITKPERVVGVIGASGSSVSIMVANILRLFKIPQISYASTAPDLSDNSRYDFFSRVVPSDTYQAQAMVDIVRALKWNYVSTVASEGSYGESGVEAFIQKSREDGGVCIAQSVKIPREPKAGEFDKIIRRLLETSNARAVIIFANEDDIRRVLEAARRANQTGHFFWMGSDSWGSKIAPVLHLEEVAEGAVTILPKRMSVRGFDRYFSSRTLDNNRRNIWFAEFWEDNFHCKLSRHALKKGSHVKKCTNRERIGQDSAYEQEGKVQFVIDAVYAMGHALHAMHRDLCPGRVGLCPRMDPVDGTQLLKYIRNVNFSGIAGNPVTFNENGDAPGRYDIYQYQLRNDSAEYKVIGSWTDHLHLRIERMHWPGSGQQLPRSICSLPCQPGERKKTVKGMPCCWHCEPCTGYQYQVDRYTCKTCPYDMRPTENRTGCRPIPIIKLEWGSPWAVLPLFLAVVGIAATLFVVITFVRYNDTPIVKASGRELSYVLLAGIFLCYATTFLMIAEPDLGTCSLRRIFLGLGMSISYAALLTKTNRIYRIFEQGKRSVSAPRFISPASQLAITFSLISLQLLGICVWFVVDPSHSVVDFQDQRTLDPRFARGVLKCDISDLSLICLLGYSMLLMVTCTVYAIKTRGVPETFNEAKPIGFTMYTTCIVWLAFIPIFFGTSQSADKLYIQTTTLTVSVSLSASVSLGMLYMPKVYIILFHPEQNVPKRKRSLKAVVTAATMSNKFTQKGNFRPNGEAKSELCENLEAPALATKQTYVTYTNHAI
Experiment: Positive allosteric modulation of mGluR4
pEC50: −log10 of the molar value.
measurement name: pEC50

Asked: Any idea what pEC50 was measured for C[C@@H](NC(=O)c1ccc(OCc2cccc(F)c2)nc1)C(C)(C)C ?
Given back: < 5.00

* * *

Biological target: Metabotropic glutamate receptor 8 (Homo sapiens)
Sequence (O00222 whole entry): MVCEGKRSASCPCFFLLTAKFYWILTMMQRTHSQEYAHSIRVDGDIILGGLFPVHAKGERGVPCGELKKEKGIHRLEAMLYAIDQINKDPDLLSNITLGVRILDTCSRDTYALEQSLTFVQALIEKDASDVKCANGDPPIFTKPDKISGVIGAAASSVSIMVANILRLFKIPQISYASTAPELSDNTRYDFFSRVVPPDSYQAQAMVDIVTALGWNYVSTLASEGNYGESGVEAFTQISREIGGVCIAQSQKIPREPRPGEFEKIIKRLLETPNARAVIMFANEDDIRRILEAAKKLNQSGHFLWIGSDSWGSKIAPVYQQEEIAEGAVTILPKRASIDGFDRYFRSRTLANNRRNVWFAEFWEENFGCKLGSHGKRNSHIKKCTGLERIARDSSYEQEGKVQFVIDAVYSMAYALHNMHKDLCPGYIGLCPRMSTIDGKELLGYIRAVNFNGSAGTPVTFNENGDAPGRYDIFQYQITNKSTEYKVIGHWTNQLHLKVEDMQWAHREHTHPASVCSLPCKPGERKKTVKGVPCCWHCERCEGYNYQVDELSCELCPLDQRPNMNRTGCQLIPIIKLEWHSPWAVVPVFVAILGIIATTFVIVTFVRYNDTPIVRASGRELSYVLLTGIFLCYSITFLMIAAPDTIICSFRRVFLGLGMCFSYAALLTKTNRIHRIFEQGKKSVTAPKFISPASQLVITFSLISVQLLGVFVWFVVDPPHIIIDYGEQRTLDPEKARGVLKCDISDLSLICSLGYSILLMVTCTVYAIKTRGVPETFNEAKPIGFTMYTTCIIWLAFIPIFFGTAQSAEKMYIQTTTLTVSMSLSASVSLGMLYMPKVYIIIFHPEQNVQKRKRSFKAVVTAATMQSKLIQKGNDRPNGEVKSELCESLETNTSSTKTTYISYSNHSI
Assay: Positive allosteric modulation of mGluR8
measurement name: EC50

Asked: Dear colleague, I am looking for the recorded EC50 of the following molecule: C[C@@H](NC(=O)c1ccc(OCc2cccc(F)c2)nc1)C(C)(C)C
Given back: > 10 µM

* * *

Assay: Solubility of the compound in fasted state simulated intestinal fluid
Assay type: physicochemical
measurement name: solubility

Asked: Please give the measured solubility for this compound: C[C@@H](NC(=O)c1ccc(OCc2cccc(F)c2)nc1)C(C)(C)C
Given back: < 20 µg/mL

* * *

Biological target: Metabotropic glutamate receptor 2 (Homo sapiens)
Experiment: Positive allosteric modulation of mGluR2
measurement name: EC50

Asked: Given C[C@@H](NC(=O)c1ccc(OCc2cccc(F)c2)nc1)C(C)(C)C , state its recorded EC50.
Given back: > 10 µM

* * *

Each item that follows carries a reported pEC50.
Target: Metabotropic glutamate receptor 5 (Rattus norvegicus)
Experiment: Positive allosteric modulation of rat mGluR5 expressed in human HEK293 cells assessed as calcium mobilization
Type: functional, cell-based
Details: read-out: EC50
pEC50 is a log-scale quantity: -log10 of the concentration expressed in molar.

Asked: Item O=C(NC1CCCCC1)c1ccc(OCc2ccc(F)cc2)nc1 with Metabotropic glutamate receptor 5 (Rattus norvegicus) - pEC50?
Given back: 6.60

Asked: Any idea what pEC50 came out for O=C(NC1CCCCC1)c1ccc(OCc2ccccc2)nc1 on Metabotropic glutamate receptor 5 (Rattus norvegicus)?
Given back: 7.47

Asked: State its pEC50 on Metabotropic glutamate receptor 5 (Rattus norvegicus): O=C(NC1CCC1)c1ccc(C#Cc2cccc(F)c2)nc1
Given back: 7.80

Asked: // map CC(C)(C)NC(=O)c1ccc(OCc2cccc(F)c2)nc1 to recorded pEC50 (system: Metabotropic glutamate receptor 5 (Rattus norvegicus))
Given back: 6.87

Asked: Kindly state the measured pEC50 obtained for CCCCOc1ccc(C(=O)NC2CCCCC2)cc1 with Metabotropic glutamate receptor 5 (Rattus norvegicus).
Given back: 6.22

Asked: Find pEC50 (Metabotropic glutamate receptor 5 (Rattus norvegicus)) for the entry O=C(NC1CCC1)c1ccc(OCc2ccccc2)nc1
Given back: 6.53

Asked: Give the reported pEC50 for O=C(NC1CCCCC1)c1ccc(OCc2cccc(F)c2)nc1 (system: Metabotropic glutamate receptor 5 (Rattus norvegicus)).
Given back: 7.54

Asked: Field: pEC50 (Metabotropic glutamate receptor 5 (Rattus norvegicus)). Entry: O=C(N[C@@H](C1CC1)C(F)(F)F)c1ccc(OCc2cccc(F)c2)nc1
Given back: 7.08

* * *

Biological target: Metabotropic glutamate receptor 6 (Homo sapiens, UniProt O15303)
Assay: Positive allosteric modulation of mGluR6
measurement name: EC50

Asked: What reported EC50 corresponds to C[C@@H](NC(=O)c1ccc(OCc2cccc(F)c2)nc1)C(C)(C)C on Metabotropic glutamate receptor 6 (Homo sapiens, UniProt O15303)?
Given back: > 10 µM

* * *

Assay: Drug uptake in rat brain after 90 mins
Assay type: ADME, tissue-based
Conditions: read-out: Drug uptake
measurement name: concentration at 1.5 h (µM)
# unit: µM | format: bare number

Asked: I have this compound here, C[C@@H](NC(=O)c1ccc(OCc2cccc(F)c2)nc1)C(C)(C)C , and I need its recorded concentration at 1.5 h.
Given back: 7.4

* * *

Molecular target: UniProtKB P31424
Assay: Positive allosteric modulation of rat mGluR5 expressed in human HEK293 cells assessed as calcium mobilization
Format: functional, cell-based
Conditions: read-out: EC50
measurement name: EC50

Record excerpt, results attached:
O=C(NC1CCOCC1)c1ccc(OCc2ccccc2)nc1 ... 3810 nM
C[C@@H](NC(=O)c1ccc(OCc2cccc(F)c2)nc1)C1CCCCC1 ... 15 nM
O=C(NC1CCC1)c1ccc(OCc2cccc(F)c2)nc1 ... 300 nM
C[C@H](NC(=O)c1ccc(OCc2cccc(F)c2)nc1)C1CCCCC1 ... 167 nM

Asked: Form entry - test system: UniProtKB P31424; read-out: EC50; compound: CCCCOc1ccc(C(=O)Nc2ccc(F)cc2F)cn1
Given back: 725 nM

Asked: Item: CCCCOc1ccc(C(=O)NC2CCC2)cc1 Test system: UniProtKB P31424 Read-out: EC50 Value: ?
Given back: 5170 nM

Asked: Query the reported EC50 for UniProtKB P31424; item: CCCCOc1ccc(C(=O)NC2CCCCC2)cn1
Given back: 2490 nM

* * *

Biological target: Metabotropic glutamate receptor 7 (Homo sapiens)
Test: Positive allosteric modulation of mGluR7
measurement name: EC50

Asked: Give its EC50 value. Item: C[C@@H](NC(=O)c1ccc(OCc2cccc(F)c2)nc1)C(C)(C)C
Given back: > 10 µM

* * *

Target: Metabotropic glutamate receptor 5 (Rattus norvegicus, UniProt P31424)
Sequence (P31424 whole entry): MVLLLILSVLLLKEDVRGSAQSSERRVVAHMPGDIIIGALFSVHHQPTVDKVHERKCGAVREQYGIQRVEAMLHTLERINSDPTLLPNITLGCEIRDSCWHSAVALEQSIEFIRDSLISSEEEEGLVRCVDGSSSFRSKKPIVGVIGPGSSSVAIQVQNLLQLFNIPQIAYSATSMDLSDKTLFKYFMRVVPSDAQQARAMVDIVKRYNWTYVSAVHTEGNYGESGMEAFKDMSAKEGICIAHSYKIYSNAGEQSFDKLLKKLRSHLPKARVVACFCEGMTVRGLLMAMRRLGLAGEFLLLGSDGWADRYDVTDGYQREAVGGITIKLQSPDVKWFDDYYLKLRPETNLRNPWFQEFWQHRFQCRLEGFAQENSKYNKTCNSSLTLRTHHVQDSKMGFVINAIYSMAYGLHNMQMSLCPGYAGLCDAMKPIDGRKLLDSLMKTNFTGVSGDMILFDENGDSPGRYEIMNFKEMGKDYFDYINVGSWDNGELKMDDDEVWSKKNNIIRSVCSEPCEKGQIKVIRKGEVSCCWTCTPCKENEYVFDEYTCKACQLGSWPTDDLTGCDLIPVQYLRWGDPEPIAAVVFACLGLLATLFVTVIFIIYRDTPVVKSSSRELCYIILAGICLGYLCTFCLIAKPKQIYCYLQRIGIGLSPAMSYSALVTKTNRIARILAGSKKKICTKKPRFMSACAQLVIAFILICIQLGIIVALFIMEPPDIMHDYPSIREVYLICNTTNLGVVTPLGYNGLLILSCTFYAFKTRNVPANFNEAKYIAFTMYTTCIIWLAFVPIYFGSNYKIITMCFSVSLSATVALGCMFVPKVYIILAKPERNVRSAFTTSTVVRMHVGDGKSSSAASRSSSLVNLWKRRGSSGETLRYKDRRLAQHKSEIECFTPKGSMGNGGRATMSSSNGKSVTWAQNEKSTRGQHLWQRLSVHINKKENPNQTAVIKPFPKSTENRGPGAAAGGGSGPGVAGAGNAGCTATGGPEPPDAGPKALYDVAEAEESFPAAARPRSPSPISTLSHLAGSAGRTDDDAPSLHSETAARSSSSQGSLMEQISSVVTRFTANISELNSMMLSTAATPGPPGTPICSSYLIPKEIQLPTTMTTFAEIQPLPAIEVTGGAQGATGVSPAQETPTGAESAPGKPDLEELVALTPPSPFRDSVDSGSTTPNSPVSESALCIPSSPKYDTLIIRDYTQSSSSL
Assay: Positive allosteric modulation of rat mGluR5 expressed in human HEK293 cells assessed as calcium mobilization
Format: functional, cell-based
Conditions: read-out: EC50
Note to self: use fulfilled only for EC50 readings below 1000 nM; a reading exactly at 1000 nM still gets not fulfilled.

Look over these answered cases.
CCCCOc1ccc(C(=O)Nc2ccc(F)cn2)cn1 ... not fulfilled
CCCCCOc1ccc(C(=O)NC2CCCCC2)cn1 ... fulfilled
CCC(C)COc1ccc(C(=O)NC2CCCCC2)cn1 (racemic) ... not fulfilled
CC(C)CCOc1ccc(C(=O)NC2CCCCC2)cn1 ... not fulfilled

Shift focus to the following entry.
Asked: Quick check: does O=C(NC1CCCCC1)c1ccc(OCC2CCCC2)nc1 have EC50 under 1000 nM?
Given back: fulfilled

Cited source for all entries: ChEMBL document CHEMBL2150846
